biological target: Cannabinoid receptor 2 (Homo sapiens, UniProt P34972)
Sequence (P34972 whole entry): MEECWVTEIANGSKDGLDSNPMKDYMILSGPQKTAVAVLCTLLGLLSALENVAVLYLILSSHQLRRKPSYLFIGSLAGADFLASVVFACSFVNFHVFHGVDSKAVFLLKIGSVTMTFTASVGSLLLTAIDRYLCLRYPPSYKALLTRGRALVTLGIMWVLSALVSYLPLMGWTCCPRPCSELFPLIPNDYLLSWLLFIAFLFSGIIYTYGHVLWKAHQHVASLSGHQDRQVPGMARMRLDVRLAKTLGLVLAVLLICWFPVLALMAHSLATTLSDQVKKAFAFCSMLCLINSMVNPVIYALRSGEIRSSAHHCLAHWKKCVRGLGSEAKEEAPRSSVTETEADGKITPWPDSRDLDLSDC
pKi: −log10 of the molar value.
pKi reference
observable: pKi

INSERT INTO assay_data (compound_string, target_system, quantitative_result) VALUES
  ('CCN(CC)C(=O)c1ccc2c(c1)nc(Nc1ccc(Oc3ccccc3)cc1)n2CCN1CCCCC1', 'Cannabinoid receptor 2 (Homo sapiens, UniProt P34972)', 5.05),
  ('CCN(CC)C(=O)c1ccc2c(c1)nc(Nc1ccc(Oc3ccccc3)cc1)n2CCC(C)C', 'Cannabinoid receptor 2 (Homo sapiens, UniProt P34972)', 6.37),
  ('CCOc1ccc(Cc2nc3cc(C(=O)N(CC)CC)ccc3n2CCCCN2CCCCC2)cc1', 'Cannabinoid receptor 2 (Homo sapiens, UniProt P34972)', 5.32),
  ('CCOc1ccc(CNc2nc3cc(C(=O)N(CC)CC)ccc3n2CCC(C)C)cc1', 'Cannabinoid receptor 2 (Homo sapiens, UniProt P34972)', 6.45),
  ('CCOc1ccc(Cc2nc3cc(C(=O)NC45CC6CC(CC(C6)C4)C5)ccc3n2CCC(C)C)cc1', 'Cannabinoid receptor 2 (Homo sapiens, UniProt P34972)', 5.33),
  ('CCOc1ccc(Cc2nc3cc(C(=O)N4CCCCC4)ccc3n2CCC(C)C)cc1', 'Cannabinoid receptor 2 (Homo sapiens, UniProt P34972)', 6.42),
  ('CCCCCCNC(=O)c1ccc2c(c1)nc(Cc1ccc(OCC)cc1)n2CCC(C)C', 'Cannabinoid receptor 2 (Homo sapiens, UniProt P34972)', 5.72),
  ('CCOc1ccc(Nc2nc3cc(C(=O)N(CC)CC)ccc3n2CCC(C)C)cc1', 'Cannabinoid receptor 2 (Homo sapiens, UniProt P34972)', 5.72),
  ('CCOc1ccc(Cc2nc3cc(NC(=O)c4ccccc4)ccc3n2CCC(C)C)cc1', 'Cannabinoid receptor 2 (Homo sapiens, UniProt P34972)', 5.37),
  ('CCOc1ccc(Cc2nc3cc(C(=O)Nc4ccccc4)ccc3n2CCC(C)C)cc1', 'Cannabinoid receptor 2 (Homo sapiens, UniProt P34972)', 4.84);
